# assayExplanation: collision cross section in nitrogen (drift tube, single-field); higher = larger gas-phase ion size;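 note: chemical standards at 10 µM analysed by drift tube IMS-QTOF MS in about 3.95 torr nitrogen, mean of duplicate injections differing ≤1%, mass error below 10 ppm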
# details: ion type: [M+H]; ion source: ESI; ion mode: Positive
readout: collision cross section in nitrogen (Å²)
Report as a plain number; the unit Å² is understood.

molecule Cn1cc[nH]c1=S [Methimazole] , collision cross section in nitrogen observed: 118.1

Entry under test: COc1ccc(-c2coc3cc(O)ccc3c2=O)cc1 [Formononetin] . Its collision cross section in nitrogen was 160.3

Value of measured collision cross section in nitrogen for the entry COP(=S)(OC)Oc1ccc(Sc2ccc(OP(=S)(OC)OC)cc2)cc1 [Temephos] : 189.5

Sure, the documented collision cross section in nitrogen for CC(C)C1(C)N=C(c2nc3ccccc3cc2C(=O)O)NC1=O (stereo not given) [Imazaquin] is 171.7

// collision cross section in nitrogen value for CCOP(=O)(CCP(=O)(OCC)OCC)OCC [Tetraethyl ethylenebisphosphonate] : 161.1
